System: Haemophilus influenzae ATCC 49247
Assay: MIC, microscale broth dilution drug sensitivity test
Assay type: cell-based
Details: ATCC49247, Haemophilus influenzae ATCC 49247, Anaerobic
// reported MIC for each item listed

// solved cases for MIC follow
compound-smiles: O=C(O)c1cn(C2CC2)c2cc(N3CCNCC3)c(F)cc2c1=O
quantity-kind: MIC
observed-result: ≤ 0.12 µg/mL

compound-smiles: CO[C@H]1/C=C/O[C@@]2(C)Oc3c(C)c(O)c4c(O)c(c(/C=N/N5CCN(C)CC5)c(O)c4c3C2=O)NC(=O)/C(C)=C\C=C\[C@H](C)[C@H](O)[C@@H](C)[C@@H](O)[C@@H](C)[C@H](OC(C)=O)[C@@H]1C
quantity-kind: MIC
observed-result: 0.25 µg/mL

compound-smiles: CO[C@H]1/C=C/O[C@@]2(C)Oc3c(C)c(O)c4c(O)c(c(/C=N/N5CCC(N(C)C6([C@@H]7CCN(c8c(F)cn9c(=O)c(C(=O)O)cc(C%10CC%10)c9c8C)C7)CC6)CC5)c(O)c4c3C2=O)NC(=O)/C(C)=C\C=C\[C@H](C)[C@H](O)[C@@H](C)[C@@H](O)[C@@H](C)[C@H](OC(C)=O)[C@@H]1C
quantity-kind: MIC
observed-result: 0.12 µg/mL

Please fill in: MIC reported for `Cc1ncc([N+](=O)[O-])n1CCO` = 64 µg/mL
